# credit: patent US20120220577A1

Molecular target: glycine binding pocket of the NMDA receptor (Rattus norvegicus, UniProt P35439)
Construct: For isolation of the cell membranes, the cortices are homogenized; from tissue; host or cells: rat cerebral cortex membranes (male Sprague-Dawley)
Test: [3H]MDL-105,519 displacement studies (rat cortical membranes)
Settings: displacement of 2 nM [3H]-MDL-105,519, rat cortical membranes; read-out: NMDA-MDL 105519-r-CTX - IC50
readout.type: IC50 (nM)

1) O=C(COc1cc(C(=O)O)cc2cc(Cl)cc(Cl)c12)Nc1ccccc1OCC(=O)N1CCOCC1 [Example 54]
228
2) CNC(=O)COc1ccccc1NC(=O)COc1cc(C(=O)O)cc2cc(Cl)cc(Cl)c12 [Example 91]
1270
3) O=C(COc1cc(C(=O)O)cc2cc(Cl)cc(Cl)c12)Nc1ccccc1-c1nnn[nH]1 [Example 85]
233
4) O=C(COc1cc(C(=O)O)cc2cc(Cl)cc(Cl)c12)NCc1cccc(-c2nnn[nH]2)c1 [Example 107]
139
5) O=C(O)c1cc(OCC(=O)N2Cc3ccccc3CC2C(=O)O)c2c(Cl)cc(Cl)cc2c1 (centres unmarked) [Example 38]
1350
6) O=C(COc1cc(C(=O)O)cc2cc(Cl)cc(Cl)c12)N[C@@H](CO)c1ccccc1 [Example 29]
983
7) N#Cc1ccc(CNC(=O)COc2cc(C(=O)O)cc3cc(Cl)cc(Cl)c23)cc1 [Example 117]
1940
8) CN(C)C(=O)COc1cc(CN)ccc1NC(=O)COc1cc(C(=O)O)cc2cc(Cl)cc(Cl)c12 [Example 123]
113

A = COc1ccc(C(=O)COc2cc(C(=O)O)cc3cc(Cl)cc(Cl)c23)cc1 [Example 4]
B = NC(=O)COc1ccccc1NC(=O)COc1cc(C(=O)O)cc2cc(Cl)cc(Cl)c12 [Example 95]
C = N#Cc1ccccc1NC(=O)COc1cc(C(=O)O)cc2cc(Cl)cc(Cl)c12 [Example 82]
D = O=C(O)c1cc(OC2CCN(c3ccccc3)C2=O)c2c(Cl)cc(Cl)cc2c1 (centres unmarked) [Example 65]
E = O=C(COc1cc(C(=O)O)cc2cc(Cl)cc(Cl)c12)Nc1cccc(OCC(=O)N2CCOCC2)c1 [Example 47]
Returns the items ordered by IC50, from maximum to minimum. Use the labels to give the requested order. A, D, B, C, E
(A: 6740 nM, D: 1390 nM, B: 641 nM, C: 440 nM, E: 218 nM)

P = N#Cc1cccc(NC(=O)COc2cc(C(=O)O)cc3cc(Cl)cc(Cl)c23)c1 [Example 98]
Q = CN(C(=O)COc1cc(C(=O)O)cc2cc(Cl)cc(Cl)c12)c1ccccc1C(=O)O [Example 20]
R = NCc1ccc(OCC(=O)O)c(NC(=O)COc2cc(C(=O)O)cc3cc(Cl)cc(Cl)c23)c1 [Example 79]
S = CN(C)CCNC(=O)COc1ccccc1NC(=O)COc1cc(C(=O)O)cc2cc(Cl)cc(Cl)c12 [Example 109]
Returns the items ordered by IC50, from maximum to minimum. Use the labels to give the requested order. P, S, Q, R

P = O=C(COc1cc(C(=O)O)cc2cc(Cl)cc(Cl)c12)Nc1cccc(OCc2nnn[nH]2)c1OCc1nnn[nH]1 [Example 128]
Q = CN(C)CCOc1ccc(NC(=O)COc2cc(C(=O)O)cc3cc(Cl)cc(Cl)c23)cc1CO [Example 87]
R = O=C(COc1cc(C(=O)O)cc2cc(Cl)cc(Cl)c12)Nc1ccccc1Cc1nnn[nH]1 [Example 100]
S = O=C(COc1cc(C(=O)O)cc2cc(Cl)cc(Cl)c12)Nc1ccccc1OCc1nnn[nH]1 [Example 60]
Arrange the 4 entries by IC50 so the values rise. Use the labels to give the requested order. S, Q, R, P

P = CC(Oc1cc(C(=O)O)cc2cc(Cl)cc(Cl)c12)C(=O)Nc1cccc(CO)c1 (centres unmarked) [Example 25]
Q = Cc1ccc(S(=O)(=O)NC(=O)COc2cc(C(=O)O)cc3cc(Cl)cc(Cl)c23)cc1 [Example 36]
Identify the entry with the larger IC50. Options: P and Q Let me know the label of the one you choose. Q
(Q: 1520 nM, P: 1030 nM)
